Consider the following substances; for each one, report its Cytotoxicity in monolayer culture CC50.
Test system: Vero cells
Settings: 24 h
The star is where a group is joined. X1 = CC(C)CCC[C@@H](C)[C@H]1CC[C@H]2[C@@H]3CC=C4C[C@@H](OC(=O)CCOCCOCCOCCOCCOCCOCCOCCOCCOCCOCCOCCOCCOCCOCCOCCOCCOCCOCCOCCOCCOCCOCCOCCOCCNC(=O)C*)CC[C@]4(C)[C@H]3CC[C@]12C; X2 = CC(C)CCC[C@@H](C)[C@H]1CC[C@H]2[C@@H]3CC=C4C[C@@H](OC(=O)CCOCCOCCOCCOCCNC(=O)C*)CC[C@]4(C)[C@H]3CC[C@]12C; X3 = CC(C)CCC[C@@H](C)[C@H]1CC[C@H]2[C@@H]3CC=C4C[C@@H](OC(=O)C*)CC[C@]4(C)[C@H]3CC[C@]12C

The examples below pair each entry with its known result.
Ac-C(X3)GSGSGVALDPIDISIVLNKAKSDLEESKEWIRRSNGKLDSI-NH2 [Chol-VG] = 9,000 nM
Ac-VALDPIDISIVLNKAKSDLEESKEWIRRSNGKLDSIGSGSGC(X2)-NH2 [VG-PEG4-Chol] = 4,500 nM
Ac-VALDPIDISIVLNKAKSDLEESKEWIRRSNGKLDSIGSGSGC(X3)-NH2 [VG-Chol] = 10,000 nM

I'm hoping you can list Cytotoxicity in monolayer culture CC50 for every substance here, please.
1. Ac-C(X2)GSGSGVALDPIDISIVLNKAKSDLEESKEWIRRSNGKLDSI-NH2 [Chol-PEG4-VG]
2. Ac-VALDPIDISIVLNKAKSDLEESKEWIRRSNGKLDSIGSGSGC(X1)-NH2 [VG-PEG24-Chol]

1: >10,000 nM; 2: 1,300 nM
